// provenance: ChEMBL document CHEMBL1147207

- testSystem: Oxytocin receptor (Rattus norvegicus)
- Sequence (P70536 whole entry): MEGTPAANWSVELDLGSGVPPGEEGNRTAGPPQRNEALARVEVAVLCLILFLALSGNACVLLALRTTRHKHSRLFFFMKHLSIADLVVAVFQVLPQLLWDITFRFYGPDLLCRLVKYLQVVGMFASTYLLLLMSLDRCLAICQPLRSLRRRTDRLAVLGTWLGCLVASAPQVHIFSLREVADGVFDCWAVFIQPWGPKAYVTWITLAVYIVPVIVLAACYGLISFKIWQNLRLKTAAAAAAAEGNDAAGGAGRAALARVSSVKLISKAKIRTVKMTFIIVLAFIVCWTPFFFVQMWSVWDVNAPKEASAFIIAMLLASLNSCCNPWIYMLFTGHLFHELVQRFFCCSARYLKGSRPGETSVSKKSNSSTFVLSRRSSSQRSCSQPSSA
- measurementProtocol: Antagonist activity in rat uterus by uterotonic assay
- Type: functional, tissue-based
- experimentalSetup: read-out: pA2 (converted)
Bridge positions count the residues as written; N and C are the ends. Square brackets hold non-standard residues; d marks the D form. Peptide text beside a SMILES is read from it. Orn = NCCC[C@H](N)C(=O)O; Mpa = O=C(O)CCS
propertyName: Kb (nM)

Known Kb results, listed for orientation:
[
  {
    "molecule": "CCOc1ccc(CC2NC(=O)CCSSC[C@@H](C(=O)N3Cc4ccccc4C[C@@H]3C(=O)N[C@@H](CC(C)C)C(=O)NCC(N)=O)NC(=O)[C@H](CC(N)=O)NC(=O)[C@H](CCC(N)=O)NC(=O)[C@H]([C@@H](C)CC)NC2=O)cc1 (stereo in doubt)",
    "Kb (nM)": 6.31
  },
  {
    "molecule": "CC[C@H](C)[C@@H]1NC(=O)[C@H](Cc2ccc(O)cc2)NC(=O)CCSSC[C@@H](C(=O)N2Cc3ccccc3C[C@H]2C(=O)N[C@@H](CC(C)C)C(=O)NCC(N)=O)NC(=O)[C@H](CC(N)=O)NC(=O)[C@H](CCC(N)=O)NC1=O",
    "Kb (nM)": 35.5
  },
  {
    "molecule": "CCc1ccc(C[C@@H]2NC(=O)CCSSC[C@@H](C(=O)NC(C)(C)C(=O)N[C@@H](CC(C)C)C(=O)NCC(N)=O)NC(=O)[C@H](CC(N)=O)NC(=O)[C@H](CCC(N)=O)NC(=O)[C@H]([C@@H](C)CC)NC2=O)cc1",
    "Kb (nM)": 39.8
  },
  {
    "molecule": "CCOc1ccc(C[C@H]2NC(=O)CCSSC[C@@H](C(=O)N3CCC[C@H]3C(=O)N[C@@H](CCCN)C(=O)NCC(N)=O)NC(=O)[C@H](CC(N)=O)NC(=O)[C@H]([C@@H](C)O)NC(=O)[C@H]([C@@H](C)CC)NC2=O)cc1 [ATOSIBAN] ([Mpa][dY](Et)ITNCP[Orn]G-NH2; disulfide 1-6)",
    "Kb (nM)": 5.13
  },
  {
    "molecule": "CC[C@H](C)[C@@H]1NC(=O)[C@H](Cc2ccc(O)cc2)NC(=O)CCSSC[C@@H](C(=O)N2Cc3ccccc3C[C@@H]2C(=O)N[C@@H](CC(C)C)C(=O)NCC(N)=O)NC(=O)[C@H](CC(N)=O)NC(=O)[C@H](CCC(N)=O)NC1=O",
    "Kb (nM)": 10
  }
]

P: CCOc1ccc(C[C@H]2NC(=O)CCSSC[C@@H](C(=O)NC(C)(C)C(=O)N[C@@H](CC(C)C)C(=O)N3Cc4ccccc4C[C@@H]3C(N)=O)NC(=O)[C@H](CC(N)=O)NC(=O)[C@H](CCC(N)=O)NC(=O)[C@H]([C@@H](C)CC)NC2=O)cc1
Q: CCc1ccc(C[C@H]2NC(=O)CCSSC[C@@H](C(=O)NC(C)(C)C(=O)N[C@@H](CC(C)C)C(=O)NCC(N)=O)NC(=O)[C@H](CC(N)=O)NC(=O)[C@H](CCC(N)=O)NC(=O)[C@H]([C@@H](C)CC)NC2=O)cc1
R: CCOc1ccc(C[C@H]2NC(=O)[C@@H](N)CSSC[C@@H](C(=O)N3CCC[C@H]3C(=O)N[C@@H](CC(C)C)C(=O)NCC(N)=O)NC(=O)[C@H](CC(N)=O)NC(=O)[C@H](CCC(N)=O)NC(=O)[C@H]([C@@H](C)CC)NC2=O)cc1
S: CC[C@H](C)[C@@H]1NC(=O)[C@H](Cc2ccc(O)cc2)NC(=O)[C@@H](N)CSSC[C@@H](C(=O)N2Cc3ccccc3C[C@@H]2C(=O)N[C@@H](CC(C)C)C(=O)NCC(N)=O)NC(=O)[C@H](CC(N)=O)NC(=O)[C@H](CCC(N)=O)NC1=O
T: CCOc1ccc(CC2NC(=O)CCSSC[C@@H](C(=O)N3Cc4ccccc4C[C@@H]3C(=O)N[C@@H](CC(C)C)C(=O)N3Cc4ccccc4C[C@@H]3C(N)=O)NC(=O)[C@H](CC(N)=O)NC(=O)[C@H](CCC(N)=O)NC(=O)[C@H]([C@@H](C)CC)NC2=O)cc1 (stereo in doubt)
Order the 5 molecules from highest to lowest Kb. Write out the labels following the order that was asked for. S, R, P, T, Q
